biological target: β-lactoglobulin (β-Lg) (Bos taurus, UniProt P02754); construct: Isolation of β-Lg from Whey; from tissue; host or cells: whey (milk), purified by bioselective adsorption on N-retinyl-Celite; test: Fluorescence titration of β-Lg with ligands (Equation [1]; Kd and n); assay type: binding; settings: read-out: Kd values (Example 6)
pKd: −log10 of the molar value.
READOUT_TYPE: pKd

>>> reported_result("CC1=C(C/C=C(\\C)CCC[C@H](C)CCC[C@H](C)CCCC(C)C)C(=O)c2ccccc2C1=O")
7.05

----------
Target: β-lactoglobulin (β-Lg) (Bos taurus, UniProt P02754)
Construct: Isolation of β-Lg from Whey; from tissue; host or cells: whey (milk), purified by bioselective adsorption on N-retinyl-Celite
Assay: Fluorescence titration of β-Lg with ligands (Equation [1]; Kd and n)
Format: binding
Method: Fluorescence spectra were recorded at 23 ° C. with a System 3 Scanning Spectrofluorometer (Optical Technology Devices, Inc., Elmsford, N.Y.) using the ratio mode. […] Titration of β-Lg with the various ligands was quantified by measuring the fluorescence quenching of the protein tryptophanyl residues (excitation at 287 nm, emission measured at 332 nm). […]
Structures can show the parent of a compound that is named as a salt.
READOUT_TYPE: Kd (nM)

>>> reported_result("CC(C)CCC[C@@H](C)[C@H]1CC[C@H]2[C@@H]3CC=C4C[C@@H](O)CC[C@]4(C)[C@H]3CC[C@]12C [Cholesterol, cholesterol]")
34.9
>>> reported_result("C=C1CC[C@H](O)C/C1=C/C=C1\\CCC[C@]2(C)[C@@H]([C@H](C)CCCC(C)C)CC[C@@H]12 [Vitamin D3, cholecalciferol]")
36
>>> reported_result("CC(C)CCC[C@@H](C)[C@H]1CC[C@H]2C3=CC=C4C[C@@H](O)CC[C@]4(C)[C@H]3CC[C@]12C [7-Dehydrocholesterol, 7-dehydrocholesterol]")
26.7
>>> reported_result("C=C1CC[C@H](OS(=O)(=O)O)C/C1=C/C=C1\\CCC[C@]2(C)[C@@H]([C@H](C)CCCC(C)C)CC[C@@H]12 [Vitamin D3 sulfate, vitamin D3 sulfate]")
30.3

----------
Biological target: β-lactoglobulin (β-Lg) (Bos taurus, UniProt P02754)
Construct: Isolation of β-Lg from Whey; from tissue; host or cells: whey (milk), purified by bioselective adsorption on N-retinyl-Celite
Sequence (P02754 17-178): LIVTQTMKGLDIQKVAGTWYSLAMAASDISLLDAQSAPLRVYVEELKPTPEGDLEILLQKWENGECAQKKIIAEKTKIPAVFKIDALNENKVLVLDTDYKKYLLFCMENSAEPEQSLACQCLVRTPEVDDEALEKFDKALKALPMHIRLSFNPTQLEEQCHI
Assay: Fluorescence emission/excitation spectra of β-Lg with and without ligand
Format: binding
Procedure: Fluorescence spectra were recorded at 23 ° C. with a System 3 Scanning Spectrofluorometer (Optical Technology Devices, Inc., Elmsford, N.Y.) using the ratio mode. […] Titration of β-Lg with the various ligands was quantified by measuring the fluorescence quenching of the protein tryptophanyl residues (excitation at 287 nm, emission measured at 332 nm). […]
READOUT_TYPE: β-Lg fluorescence, 300 to 360 nm

>>> reported_result("C=C1CC[C@H](O)C/C1=C/C=C1\\CCC[C@]2(C)[C@@H]([C@H](C)/C=C/[C@H](C)C(C)C)CC[C@@H]12 [Vitamin D2, ergocalciferol]")
"quenched"
>>> reported_result("CC1=C(C/C=C(\\C)CCC[C@H](C)CCC[C@H](C)CCCC(C)C)C(=O)c2ccccc2C1=O")
"quenched"

----------
Target: β-lactoglobulin (β-Lg) (Bos taurus, UniProt P02754)
Construct: Isolation of β-Lg from Whey; from tissue; host or cells: whey (milk), purified by bioselective adsorption on N-retinyl-Celite
Sequence (P02754 17-178): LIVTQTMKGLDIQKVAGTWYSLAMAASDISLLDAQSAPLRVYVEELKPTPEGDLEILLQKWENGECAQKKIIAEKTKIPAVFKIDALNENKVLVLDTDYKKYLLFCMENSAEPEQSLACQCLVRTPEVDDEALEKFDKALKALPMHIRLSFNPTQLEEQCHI
Test: Fluorescence titration of β-Lg with ligands (Equation [1]; Kd and n)
Assay type: binding
Details: β-Lg titration as in Example 3
Mark each entry yes if its n, Table 2 sits below 1 mol/mol β-LG, and no for all others.

>>> group("CCCCCCCCCCCCCCCC(=O)OC/C=C(C)/C=C/C=C(C)/C=C/C1=C(C)CCCC1(C)C [Retinyl palmitate (R), Retinyl palmitate]")
"yes"
>>> group("CC1=C(C/C=C(\\C)CCC[C@H](C)CCC[C@H](C)CCCC(C)C)C(=O)c2ccccc2C1=O [Vitamin K1, 2-methyl-3-phytyl-1,4-napthho-quinone]")
"no"
>>> group("CCCCCCCCCCCCCCCC(=O)OC/C=C(C)/C=C/C=C(C)/C=C/C1=C(C)CCCC1(C)C [Retinyl palmitate (P), Retinyl palmitate]")
"no"
>>> group("CC1=C(/C=C/C(C)=C/C=C/C(C)=C/C(=O)O)C(C)(C)CCC1 [Retinoic acid, retinoic acid]")
"yes"
>>> group("C=C1CC[C@H](O)C/C1=C/C=C1\\CCC[C@]2(C)[C@@H]([C@H](C)/C=C/[C@H](C)C(C)C)CC[C@@H]12 [Vitamin D2, ergocalciferol]")
"no"
>>> group("CC(C)CCC[C@@H](C)[C@H]1CC[C@H]2[C@@H]3CC=C4C[C@@H](O)CC[C@]4(C)[C@H]3CC[C@]12C [Cholesterol, cholesterol]")
"no"
>>> group("CCCCCCCCCCCCCCCC(=O)O [Palmitic acid]")
"no"
>>> group("C=C1CC[C@H](O)C/C1=C/C=C1\\CCC[C@]2(C)[C@@H]([C@H](C)CCCC(C)C)CC[C@@H]12 [Vitamin D3, cholecalciferol]")
"no"
